B1: library; numbered along this chain (parent)
chain: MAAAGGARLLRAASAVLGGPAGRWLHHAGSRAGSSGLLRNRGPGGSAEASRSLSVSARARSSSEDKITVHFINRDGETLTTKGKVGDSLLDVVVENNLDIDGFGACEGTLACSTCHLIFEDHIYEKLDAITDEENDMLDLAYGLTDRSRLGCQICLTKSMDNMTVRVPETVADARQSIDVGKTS

- Variants of: B1
- PROTOCOL DESCRIPTION: scaled log2 fold change in cell abundance, elesclomol vs control (0 = silent mean, 1 = nonsense mean) (scaled log2 ratio); higher = higher viability under elesclomol (loss of FDX1 cuproptosis function);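 note: variant abundance is its share of total variant reads in each endpoint sample, from next-generation sequencing of the integrated ORF PCR-amplified out of genomic DNA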
- PARTICULARS: with ABC1 FDX1 KO; elesclomol 5 nM; glucose 10 mM; 14 days
MEASUREMENT KIND: scaled log2 fold change
# respond with the number and nothing more

| CHANGES | VALUE REPORTED |
| --- | --- |
| T68E | -0.318 |
| E48I | 0.367 |
| S54I | 0.459 |
| S54E | -0.297 |
| R11H | 0.0541 |
| R74Y | -0.0737 |

Below: the item to evaluate.
**Query** Answer with reported scaled log2 fold change of R60K
**Result** -0.27
